target: CD137 on Jurkat reporter cells (Promega kit CS196005) (UniProt Q07011); assay: cell-based or functional assay
Sequence (Q07011 24-255 limits assumed): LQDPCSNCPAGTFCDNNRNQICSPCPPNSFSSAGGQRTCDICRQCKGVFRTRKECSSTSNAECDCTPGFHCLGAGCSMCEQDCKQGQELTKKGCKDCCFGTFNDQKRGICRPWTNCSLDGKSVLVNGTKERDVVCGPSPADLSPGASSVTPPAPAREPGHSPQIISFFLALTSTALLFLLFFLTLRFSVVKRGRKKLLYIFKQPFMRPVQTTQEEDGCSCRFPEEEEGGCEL
Starred links: 1 amine or outer side, 2 acyl side, 3 side chain; linkers in the order of their positions; H or OH if unused. Positions of bridges follow the written chain, without caps; N, C: chain ends. Non-standard residues stand in square brackets, D forms with d. Chains are numbered I, II in the order given. No end group written: not given here. *: point of attachment. TATA = O=C(CC[*:1])N1CN(C(=O)CC[*:2])CN(C(=O)CC[*:3])C1; Hyp = O=C(O)[C@@H]1C[C@@H](O)CN1; hArg = N=C(N)NCCCC[C@H](N)C(=O)O; tBuAla = CC(C)(C)C[C@H](N)C(=O)O; Cba = N[C@@H](CC1CCC1)C(=O)O; dK(PYA) = not defined here; NMeA = CN[C@@H](C)C(=O)O; Nle = CCCC[C@H](N)C(=O)O; Pent4ynoyl = C#CCCC(=O)*; Mpa = O=C(O)CCS
Emax (fold induction over background), PC3 (fold over background) strictly less than 50 = label 1. Otherwise label 0.

Worked examples, 3 binders total:
INSERT INTO results (binder, assignedcategory) VALUES
  ('BCY13139 (linker I:4-I:11-I:18, II:1-II:8-II:15 via TATA; not fully specified (N-terminus); also: linker joins chain 1 to two chain 2 copies via PYA triazoles) peptide 1: A[hArg]DC[Hyp]LVNPLCLHP[dD]W[hArg]C peptide 2: [Mpa][tBuAla]EE[dK](Pent4ynoyl)PYCFADPY[Nle]C', 'label 1'),
  ('BCY13275 (linker I:4-I:11-I:18, II:1-II:8-II:15 via TATA; not fully specified (N-terminus, bridges); also: linker joins chain 1 to two chain 2 copies via PYA triazoles) peptide 1: [NMeA][hArg]DC[Hyp]LVNPLCLHP[dD]W[hArg]C peptide 2: Ac-C[tBuAla]PE[dK](Pent4ynoyl)PYCFADPY[Nle]CA', 'label 1'),
  ('BCY12977 (linker I:4-I:11-I:18, II:1-II:8-II:15 via TATA; linker II:N-II:5 via N‑(acid-PEG3)‑N‑bis(PEG3-azide); reading uncertain; also: two CD137 bicycles per complex (EphA2:CD137 1:2)) peptide 1: A[hArg]DC[Hyp]LVNPLCLHP[dE]W[hArg]C peptide 2: Ac-C[tBuAla]PE[dK(PYA)]PYCFADPY[Nle]CA', 'label 0');

Now for a further binder.
Does the reported Emax (fold induction over background), PC3 (fold over background) of BCY13051 (linker I:4-I:11-I:18, II:1-II:8-II:15 via TATA; not fully specified (N-terminus, bridges); also: linker joins chain 1 to two chain 2 copies via PYA triazoles) peptide 1: A[hArg]DC[Hyp][Cba]VNPLCLEP[dD]WTC peptide 2: Ac-C[tBuAla]PE[dK](Pent4ynoyl)PYCFADPY[Nle]CA stay below 50?
label 1

Where do these numbers come from? They come from patent US20230129258A1.
